Data origin: patent US11986471B2

Measured pIC50 by item
molecular target: PRMT5 (Homo sapiens, UniProt O14744); construct: purchased Viva (custom protein); assay: PRMT5 IC50 assay in the presence of SAM as cofactor; assay type: biochemical
Sequence (O14744 whole entry): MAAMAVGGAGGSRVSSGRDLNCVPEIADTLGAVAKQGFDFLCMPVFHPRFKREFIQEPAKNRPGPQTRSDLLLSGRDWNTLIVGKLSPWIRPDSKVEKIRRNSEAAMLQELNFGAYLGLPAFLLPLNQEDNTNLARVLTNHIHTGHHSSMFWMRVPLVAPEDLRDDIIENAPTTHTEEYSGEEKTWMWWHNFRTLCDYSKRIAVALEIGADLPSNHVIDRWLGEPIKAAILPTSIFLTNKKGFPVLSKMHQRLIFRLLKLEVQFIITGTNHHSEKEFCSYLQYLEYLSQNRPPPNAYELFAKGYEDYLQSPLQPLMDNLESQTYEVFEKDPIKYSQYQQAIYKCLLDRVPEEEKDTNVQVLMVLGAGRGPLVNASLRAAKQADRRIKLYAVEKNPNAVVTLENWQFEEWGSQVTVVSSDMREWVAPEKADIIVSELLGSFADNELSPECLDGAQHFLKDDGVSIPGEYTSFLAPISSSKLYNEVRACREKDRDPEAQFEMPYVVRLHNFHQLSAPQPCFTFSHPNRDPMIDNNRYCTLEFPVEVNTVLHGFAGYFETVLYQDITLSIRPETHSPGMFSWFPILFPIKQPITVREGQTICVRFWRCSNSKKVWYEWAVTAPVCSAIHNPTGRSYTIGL
Sequence (Q9BQA1 whole entry partner): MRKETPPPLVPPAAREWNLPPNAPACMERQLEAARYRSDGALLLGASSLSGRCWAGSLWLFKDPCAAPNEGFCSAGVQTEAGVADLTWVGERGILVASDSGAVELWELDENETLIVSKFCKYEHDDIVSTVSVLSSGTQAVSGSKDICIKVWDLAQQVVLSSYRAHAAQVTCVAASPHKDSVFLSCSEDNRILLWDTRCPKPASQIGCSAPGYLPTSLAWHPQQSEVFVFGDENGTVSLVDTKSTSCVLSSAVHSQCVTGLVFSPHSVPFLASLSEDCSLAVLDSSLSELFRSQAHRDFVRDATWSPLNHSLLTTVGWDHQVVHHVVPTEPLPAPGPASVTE
pIC50: −log10 of the molar value.

CC(C)C(=O)N1CCN(c2nc(NC3COC3)cc(C(=O)NC[C@H](O)CN3CCc4c(ccc(OCc5cnco5)c4Cl)C3)n2)CC1 [Compound 323] :: 6.30 to 7.30

Data request: Value lookup for pIC50; key = CC(=O)N1CCN(c2cc(C(=O)NC[C@H](O)CN3CCc4cc(OCc5ocnc5C)ccc4C3)cc(NC3CCC3)n2)CC1 [Compound 556]
Data returned: 6.30 to 7.30

Data request: Quick one: pIC50 of Cc1c(OCc2cnco2)ccc2c1CCN(C[C@@H](O)CNC(=O)c1ccnc(NC3CCN(C(=O)C4CCC4)CC3)c1)C2 [Compound 494] ?
Data returned: 6.30 to 7.30

Data request: Sample CC(=O)N1CCC(Nc2cc(C(=O)NC[C@@H](O)CN3CCc4cc(OCc5ocnc5C)ccc4C3)ncn2)CC1 [Compound 249] — what was its pIC50?
Data returned: 5.30 to 6.30
